- Tested on: SK-OV-3 ovarian
- protocolNotes: NCI-60 one-dose screen, 48 h
- runConditions: 10 µM unless noted
This is part of a sample that, as a whole, favours compounds with a hit. Of some 83,000 tested, about 20% had one in any assay. The source made the active and inactive calls. Rule for the calls: active = growth percent below 10; inactive = the rest.
# output must be one of 1 = active, 0 = inactive

O=C1NC(=O)C(CC(=O)n2c(-c3ccccc3)nc3ccccc32)C(=O)N1    0
O=S(=O)(Nc1ccc(Cl)cc1Cl)c1ccc(-c2cnc(C3CC3)o2)cc1    0
COc1cnc2c(c1)C(=O)c1c-2n(CCCN2CCNCC2)c(=O)c2cc([N+](=O)[O-])ccc12    1
C#Cc1nc2ccccc2c(=O)[nH]1    0
CS(=O)(CCCCN=C=S)=NC(=O)c1c(F)c(F)c(F)c(F)c1F (stereo unspecified)    0
CCOC(=O)c1c2c(n3ccc(NC(=O)CCN(CC)CC)cc13)C(=O)c1ncccc1C2=O    0
O=C(/C=C/c1ccc(Cl)cc1)/C=C/c1cc2ccccc2[nH]c1=O    0
O=C1CC(c2nc3ccccc3s2)CN1C1CCCCC1 (stereo unspecified)    0
COc1cc(-c2c3c(nc4c2c(C)nn4-c2ccccc2)-c2ccccc2C(=O)C3=O)cc(OC)c1OC    0
CCN(CC)CC(O)c1cc(-c2ccc(Cl)cc2)nc2c(C)c(Cl)ccc12 (stereo unspecified)    0

Prompt: What was the test verdict on c1c2c(cc3c1OCO3)Cc1cc3c(cc1Cc1cc4c(cc1C2)OCO4)OCO3 ?
Completion: 0

Prompt: What was the test verdict on Oc1ccccc1N=Cc1c(O)ccc2ccccc12 ?
Completion: 0

Prompt: What was the test verdict on CC/C=C\C[C@H](O)C/C=C1/C(=O)C=C[C@@H]1C/C=C\CCCC(N)=O ?
Completion: 0

Prompt: What was the test verdict on CCN(CC)CC(C)(C)C(=O)/C=C/c1ccccc1 ?
Completion: 0

Prompt: What was the test verdict on NC(=S)N/N=C/c1cc(-c2cccc(N)c2)ccn1 ?
Completion: 0

Prompt: What was the test verdict on COc1nc2c(cc1S(=O)(=O)c1ccccc1)CCc1c-2cnn1Cc1ccccc1 ?
Completion: 0

Prompt: What was the test verdict on COc1cc(C2CC(=O)c3c(C)nn(-c4nc5ccccc5[nH]4)c3C2)cc(OC)c1OC (stereo unspecified) ?
Completion: 0

Prompt: What was the test verdict on CCOC(=O)C(C#N)C1CCCCC1 (stereo unspecified) ?
Completion: 0

Prompt: What was the test verdict on N=c1c2ccccc2nc2n1CCCCC2 ?
Completion: 0

Prompt: What was the test verdict on CCOC(=O)C(Cc1cc(I)c(O)c(I)c1)NC(=O)c1ccccc1 (stereo unspecified) ?
Completion: 0

Prompt: What was the test verdict on Clc1ccc(-c2nnc(COc3ccccc3Cl)o2)cc1 ?
Completion: 0

Prompt: What was the test verdict on O=C(C[C@@H](C(=O)NCc1cccc(C(F)(F)F)c1)N1C(=O)[C@@H](N2C(=O)OC[C@@H]2c2ccccc2)[C@H]1/C=C/c1ccccc1)NC1CCN(Cc2ccccc2)CC1 ?
Completion: 0

Prompt: What was the test verdict on Nc1nc2c(c3ncccc13)C(c1cccc(Br)c1)Cc1ncccc1-2 (stereo unspecified) ?
Completion: 0

Prompt: What was the test verdict on ClC1=C2NC=NC2n2c(nnc2-c2ccc(Cl)cc2)N1 (stereo unspecified) ?
Completion: 0

Prompt: What was the test verdict on CC#CC#Cc1cccc(=O)o1 ?
Completion: 0

Prompt: What was the test verdict on Oc1cc(O)c2c(=S)cc(-c3ccc(Cl)cc3)oc2c1 ?
Completion: 0

Prompt: What was the test verdict on CCCCCCCCCCCCNC(=O)[C@H]1CSC(c2ccc(OC)c(F)c2)N1 (stereo partly specified) ?
Completion: 1
